test method notes: In vivo GBM rat model: haematology
assay conditions: GBM rats, 30 mg/kg oral, 5 days, blood at necropsy
experimental readout: HCT (%)
Quick reminder: number only, in %, skip the unit.

Examples with answers:
[[record]]
molecule = "O=C(COc1ccc2c(c1)CCC(=O)N2)N/N=C/c1cnc(-c2ccc(Cl)cc2)nc1 [TR-G066]"
experimental_readout = "HCT"
result_unit = "%"
recorded_result = 46.30

[[record]]
molecule = "O=C1CCc2cc(OS(=O)(=O)c3cccc4ccccc34)ccc2N1 [TR-G045]"
experimental_readout = "HCT"
result_unit = "%"
recorded_result = 47.24

[[record]]
molecule = "COc1cc(NC(=O)COc2ccc3c(c2)CCC(=O)N3)cc(OC)c1 [TR-G091]"
experimental_readout = "HCT"
result_unit = "%"
recorded_result = 43.95


# get_value(readout='HCT', item= CC(C)CCOc1ccc2c(c1)CCC(=O)N2 [TR-G002] )
48.53

Continue with C=CCOC(=O)COc1ccc2c(c1)CCC(=O)N2 [TR-G071]
48.15

Continue with Cn1nnc2c(C(N)=O)ncn2c1=O [TMZ, Temozolomide, reference compound]
48.13

Continue with C=Cc1ccc(COc2ccc3c(c2)CCC(=O)N3)cc1 [TR-G053]
48.77
